Biological target: EGFR on the surface of human tumour cells (A431, H292) (human, UniProt P00533 25-1210)
Assay: cell-based or functional assay
QUANTITY_KIND: % inhibition of EGFR phosphorylation at 100 nM binder, cell-based assay (%)
Expressed in %, but write only the number.

{"columns": ["BINDER", "OBS_VALUE"],
 "data": [
  ["E3 EGFR 10Fn3-based binder, His-tagged monomer (designed binder) MGVSDVPRDLEVVAATPTSLLISWLPGKLRYQYYRITYGETGGNSPVQEFTVPHDLRTATISGLKPGVDYTITVYAVTNMMHVEYSEYPISINYRTEIDKPSQHHHHHH", 87.5]
]}

Read the next record carefully.
Lookup: Return reported % inhibition of EGFR phosphorylation at 100 nM binder, cell-based assay; argument: E8 (designed binder) 10Fn3 domain: MGVSDVPRDLEVVAATPTSLLISWQVPRPMYQYYRITYGETGGNSPVQEFTVPYDLTTATISGLKPGVDYTITVYAVTDSYNPATHEYKYHQTPISINYRTEIDKPSQ
Found: 92.4
